Experiment: Inhibition of recombinant full length HIV1 reverse transcriptase RNase H domain using RNA/DNA duplex substrate HTS1 assessed as reduction in internal cleavage of RNA strand by fluoresence assay
Design: species or system Human immunodeficiency virus 1
pIC50: −log10 of the molar value.
Readout: pIC50

1) O=C(NCc1cccc(Cl)c1F)c1c(Nc2ccc(-c3ccccc3)cc2)[nH]c(=O)n(O)c1=O ... 7.23
2) O=C(Nc1ccc(-c2ccccc2)cc1)c1c(Nc2ccc(-c3ccccc3)cc2)[nH]c(=O)n(O)c1=O ... 6.00
3) O=C(Nc1ccccc1)c1c(NCc2ccccc2)[nH]c(=O)n(O)c1=O ... 7.57
4) O=C(Nc1ccc(F)cc1F)c1c(NCc2ccccc2)[nH]c(=O)n(O)c1=O ... 7.10
5) O=C(Nc1ccc(C(F)(F)F)cc1)c1c(Nc2ccccc2)[nH]c(=O)n(O)c1=O ... 7.42
6) O=C(NCc1ccc(-c2ccccc2)cc1)c1c(NCc2ccc(-c3ccccc3)cc2)[nH]c(=O)n(O)c1=O ... 6.96
7) O=C(NCc1cccc(F)c1)c1c(Nc2ccc(-c3ccccc3)cc2)[nH]c(=O)n(O)c1=O ... 7.31
8) O=C(NCc1ccccc1)c1c(NCc2ccc(-c3ccccc3)cc2)[nH]c(=O)n(O)c1=O ... 7.27
9) O=C(Nc1ccccc1)c1c(Nc2ccccc2)[nH]c(=O)n(O)c1=O ... 7.80

----------
Test: Cytotoxicity against human P4R5 cells by MTS assay
Format: cell-based
Readout: CC50

1) O=C(NCc1ccccc1)c1c(NCc2ccccc2)[nH]c(=O)n(O)c1=O ... > 100 µM
2) O=C(NCc1ccc(-c2ccccc2)cc1)c1c(NCc2ccccc2)[nH]c(=O)n(O)c1=O ... > 100 µM
3) O=C(NCc1cc(F)ccc1F)c1c(Nc2ccc(-c3ccccc3)cc2)[nH]c(=O)n(O)c1=O ... > 100 µM
4) O=C(Nc1ccccc1)c1c(Nc2ccccc2)[nH]c(=O)n(O)c1=O ... > 100 µM
5) O=C(Nc1ccccc1)c1c(NCc2ccccc2)[nH]c(=O)n(O)c1=O ... 52 µM
6) Cc1ccc(NC(=O)c2c(Nc3ccccc3)[nH]c(=O)n(O)c2=O)cc1 ... > 100 µM
7) O=C(NCc1ccccc1)c1c(Nc2ccccc2)[nH]c(=O)n(O)c1=O ... > 100 µM
8) O=C(NCc1ccc(-c2ccccc2)cc1)c1c(NCc2ccc(-c3ccccc3)cc2)[nH]c(=O)n(O)c1=O ... > 100 µM
9) O=C(Nc1ccc(F)cc1)c1c(NCc2ccccc2)[nH]c(=O)n(O)c1=O ... > 100 µM
10) O=C(Nc1ccc(C(F)(F)F)cc1)c1c(Nc2ccccc2)[nH]c(=O)n(O)c1=O ... > 100 µM
11) CCc1ccc(NC(=O)c2c(NCc3ccccc3)[nH]c(=O)n(O)c2=O)cc1 ... > 100 µM
12) O=C(NCc1ccc(F)cc1F)c1c(Nc2ccc(-c3ccccc3)cc2)[nH]c(=O)n(O)c1=O ... > 100 µM
13) O=C(Nc1cccc2ccccc12)c1c(NCc2ccccc2)[nH]c(=O)n(O)c1=O ... > 100 µM
14) O=C(Nc1cccc2ccccc12)c1c(Nc2ccccc2)[nH]c(=O)n(O)c1=O ... 76.8 µM
15) O=C(Nc1ccc(F)cc1)c1c(Nc2ccccc2)[nH]c(=O)n(O)c1=O ... 58.4 µM
16) O=C(Nc1ccc(-c2ccccc2)cc1)c1c(NCc2ccccc2)[nH]c(=O)n(O)c1=O ... 54 µM
17) O=C(NCc1cccc(F)c1)c1c(Nc2ccc(-c3ccccc3)cc2)[nH]c(=O)n(O)c1=O ... > 100 µM
18) O=C(Nc1ccc(F)cc1F)c1c(NCc2ccccc2)[nH]c(=O)n(O)c1=O ... > 100 µM
19) Cc1ccc(NC(=O)c2c(NCc3ccccc3)[nH]c(=O)n(O)c2=O)cc1 ... 53 µM
20) O=C(Nc1ccc(C(F)(F)F)cc1)c1c(NCc2ccccc2)[nH]c(=O)n(O)c1=O ... > 100 µM

----------
Test: Inhibition of recombinant full length HIV1 reverse transcriptase polymerase domain assessed as decrease in extension of 18 nucleotide DNA primer annealed to 100 nucleotide DNA template after 30 mins
Parameters: species or system Human immunodeficiency virus 1
pIC50: −log10 of the molar value.
Catalogue of pIC50 values
Readout: pIC50

1) COc1ccc(-c2ccc(NC(=O)c3c(Nc4ccc(-c5ccccc5)cc4)[nH]c(=O)n(O)c3=O)cc2)cc1 ... 5.85
2) O=C(Nc1ccc(C(F)(F)F)cc1)c1c(Nc2ccccc2)[nH]c(=O)n(O)c1=O ... 5.09
3) O=C(Nc1cccc2ccccc12)c1c(Nc2ccccc2)[nH]c(=O)n(O)c1=O ... 5.11
4) COc1cc2ccccc2cc1/C=N/NC(=O)c1cc(O)c(O)c(O)c1 ... 6.30

----------
Assay: Inhibition of recombinant full length HIV1 reverse transcriptase RNase H domain using RNA/DNA duplex substrate HTS1 assessed as reduction in internal cleavage of RNA strand by fluoresence assay
Parameters: species or system Human immunodeficiency virus 1
pIC50: −log10 of the molar value.
Measured pIC50 values are reported for all entries that follow.
Readout: pIC50

1. O=C(NCc1ccc(-c2ccccc2)cc1)c1c(NCc2ccccc2)[nH]c(=O)n(O)c1=O ... 7.42
2. O=C(NCc1ccccc1)c1c(NCc2ccccc2)[nH]c(=O)n(O)c1=O ... 7.49
3. O=C(NCc1ccccc1)c1c(Nc2ccccc2)[nH]c(=O)n(O)c1=O ... 7.25
4. O=C(NCc1cc(F)ccc1F)c1c(Nc2ccc(-c3ccccc3)cc2)[nH]c(=O)n(O)c1=O ... 7.30
5. O=C(Nc1ccc(-c2ccccc2)cc1)c1c(NCc2ccccc2)[nH]c(=O)n(O)c1=O ... 6.92
6. Cc1ccc(NC(=O)c2c(NCc3ccccc3)[nH]c(=O)n(O)c2=O)cc1 ... 7.72
7. O=C(NCc1ccc(F)cc1)c1c(Nc2ccc(-c3ccccc3)cc2)[nH]c(=O)n(O)c1=O ... 7.33
8. O=C(Nc1ccc(F)cc1)c1c(NCc2ccccc2)[nH]c(=O)n(O)c1=O ... 7.72
9. COc1ccc(-c2ccc(NC(=O)c3c(Nc4ccc(-c5ccccc5)cc4)[nH]c(=O)n(O)c3=O)cc2)cc1 ... 5.92

----------
Experiment: Inhibition of recombinant full length HIV1 reverse transcriptase polymerase domain assessed as decrease in extension of 18 nucleotide DNA primer annealed to 100 nucleotide DNA template after 30 mins
Parameters: species or system Human immunodeficiency virus 1
pIC50: −log10 of the molar value.
Below is a list of entries, each paired with its recorded pIC50 value.
Readout: pIC50

1. O=C(Nc1ccccc1)c1c(NCc2ccc(-c3ccccc3)cc2)[nH]c(=O)n(O)c1=O ... < 5.00
2. Cc1ccc(NC(=O)c2c(NCc3ccccc3)[nH]c(=O)n(O)c2=O)cc1 ... 5.00
3. O=C(NCc1ccccc1)c1c(Nc2ccccc2)[nH]c(=O)n(O)c1=O ... < 5.00
4. O=C(Nc1ccc(-c2ccccc2)cc1)c1c(NCc2ccc(-c3ccccc3)cc2)[nH]c(=O)n(O)c1=O ... < 5.00
5. O=C(NCc1ccc(F)cc1)c1c(Nc2ccc(-c3ccccc3)cc2)[nH]c(=O)n(O)c1=O ... < 5.00
6. O=C(Nc1ccc(F)cc1F)c1c(NCc2ccccc2)[nH]c(=O)n(O)c1=O ... < 5.00
7. O=C(NCc1ccccc1)c1c(Nc2ccc(-c3ccccc3)cc2)[nH]c(=O)n(O)c1=O ... < 5.00
8. O=C(Nc1ccc(C(F)(F)F)cc1)c1c(NCc2ccccc2)[nH]c(=O)n(O)c1=O ... < 5.00
9. O=C(Nc1ccccc1)c1c(NCc2ccccc2)[nH]c(=O)n(O)c1=O ... < 5.00
10. O=C(Nc1ccc(-c2ccccc2)cc1)c1c(Nc2ccc(-c3ccccc3)cc2)[nH]c(=O)n(O)c1=O ... 5.74
11. CCc1ccc(NC(=O)c2c(NCc3ccccc3)[nH]c(=O)n(O)c2=O)cc1 ... 5.00
12. O=C(NCc1ccc(-c2ccccc2)cc1)c1c(NCc2ccc(-c3ccccc3)cc2)[nH]c(=O)n(O)c1=O ... < 5.00
13. O=C(NCc1ccccc1F)c1c(Nc2ccc(-c3ccccc3)cc2)[nH]c(=O)n(O)c1=O ... < 5.00
14. O=C(NCc1ccc(F)cc1F)c1c(Nc2ccc(-c3ccccc3)cc2)[nH]c(=O)n(O)c1=O ... 5.07
15. O=C(Nc1cccc2ccccc12)c1c(NCc2ccccc2)[nH]c(=O)n(O)c1=O ... < 5.00
16. O=C(NCc1ccccc1)c1c(NCc2ccc(-c3ccccc3)cc2)[nH]c(=O)n(O)c1=O ... < 5.00
17. O=C(Nc1ccc(F)cc1)c1c(NCc2ccccc2)[nH]c(=O)n(O)c1=O ... 5.00
18. O=C(Nc1ccc(F)cc1)c1c(Nc2ccccc2)[nH]c(=O)n(O)c1=O ... < 5.00
19. O=C(Nc1ccccc1)c1c(Nc2ccccc2)[nH]c(=O)n(O)c1=O ... < 5.00
